Recorded values, source PubChem BioAssay (EPA / NIEHS).

Read-out: Interleukin 6 (IL6), IL6 (gene 3569)
method summary: LTEA_HepaRG_IL6: Life Technologies and Expression Analysis (LTEA) Assay for Interleukin 6 (IL6) using HepaRG (AID 2283509)
conditions used: mRNA level, 48 h; actives raise or lower the signal
The source made the active and inactive calls. Rule for the calls: active = hit-call score of the fitted dose curve at least 0.9, where 1 is the maximum; inactive = score below 0.9.

{"compound": "C1CC2OC2CC1C1CO1 (stereo not drawn)", "outcome": "inactive"}
{"compound": "Clc1ccc(C(Cl)(Cl)Cl)cc1", "outcome": "inactive"}
{"compound": "CCCCCCOC(=O)c1ccccc1C(=O)OCCCCCC", "outcome": "inactive"}

====

Read-out: Monocyte Chemoattractant Protein-1 (MCP1), CCL2 (gene 6347)
method summary: BSK_3C_MCP1: BioMAP Diversity Plus: 3C Assay for Monocyte Chemoattractant Protein-1 (MCP1) Biomarker Activity (AID 2283017)
conditions used: primary human endothelial cells (HUVEC); actives raise or lower the signal
Activity calls are given as the source filed them. Rule for the calls: active = hit-call score of the fitted dose curve at least 0.9, where 1 is the maximum; inactive = score below 0.9.
Labels: active, inactive

{"compound": "O=NN(c1ccccc1)c1ccccc1", "class assignment": "inactive"}
{"compound": "C=CC(=O)NCNC(=O)C=C", "class assignment": "inactive"}
{"compound": "C1CC2OC2CC1C1CO1 (centres undefined)", "class assignment": "inactive"}
{"compound": "CC(C)(c1ccccc1)c1ccc(O)cc1", "class assignment": "active"}
{"compound": "Clc1ccc(C(Cl)(Cl)Cl)cc1", "class assignment": "inactive"}
{"compound": "Clc1ccc(C(c2ccccc2Cl)C(Cl)(Cl)Cl)cc1 (centres undefined)", "class assignment": "active"}
{"compound": "CN(C)CCO", "class assignment": "inactive"}
{"compound": "Cc1ccccc1[N+](=O)[O-]", "class assignment": "inactive"}
{"compound": "CC#Cc1cc(C)nc(Nc2ccccc2)n1", "class assignment": "inactive"}
